The origin of these recorded values is ChEMBL document CHEMBL1142402.

Listed below: IC50 values for each entry.
assay: Cytotoxicity against multidrug resistant P-gp expressing human KBV20C cells assessed as cell viability in presence of vincristine by MTS assay; type: functional, cell-based

{"Molecule": "COc1cc(/C=C/C(=O)c2cccc(NC(=O)c3cc(Cl)cc(Cl)c3)c2)ccc1O", "IC50 (nM)": 410}
{"Molecule": "COc1cc(/C=C/C(=O)c2cccc(NC(=O)c3ccccc3)c2)ccc1O", "IC50 (nM)": 3820}
{"Molecule": "COc1cc(/C=C/C(=O)c2cccc(NC(=O)c3ccc(Cl)c(Cl)c3)c2)ccc1O", "IC50 (nM)": 850}
{"Molecule": "CCOC(=O)C(=O)Nc1cccc(C(=O)/C=C/c2ccc(O)c(OC)c2)c1", "IC50 (nM)": 3310}
{"Molecule": "COC(=O)CC(=O)Nc1cccc(C(=O)/C=C/c2ccc(O)c(OC)c2)c1", "IC50 (nM)": 3810}
{"Molecule": "COc1cc(/C=C/C(=O)c2cccc(NC(=O)c3ccco3)c2)ccc1O", "IC50 (nM)": 1440}
{"Molecule": "CCCC(=O)Nc1cccc(C(=O)/C=C/c2ccc(O)c(OC)c2)c1", "IC50 (nM)": 2890}
{"Molecule": "COc1cc(/C=C/C(=O)c2cccc(N)c2)ccc1O", "IC50 (nM)": 1260}
{"Molecule": "COc1cc(/C=C/C(=O)c2cccc(NC(=O)C(C)C)c2)ccc1O", "IC50 (nM)": 2920}
{"Molecule": "COc1cc(/C=C/C(=O)c2cccc(NC(=O)c3cccs3)c2)ccc1O", "IC50 (nM)": 1410}
{"Molecule": "COc1cc(/C=C/C(=O)c2cccc(NC(=O)c3ccc(Cl)cc3)c2)ccc1O", "IC50 (nM)": 480}
{"Molecule": "COc1cc(/C=C/C(=O)c2cccc(NC(=O)c3ccc(Cl)cc3Cl)c2)ccc1O", "IC50 (nM)": 720}
{"Molecule": "COc1cc(/C=C/C(=O)CC(=O)/C=C/c2ccc(O)c(OC)c2)ccc1O [CURCUMIN]", "IC50 (nM)": 820}
{"Molecule": "COc1cc(/C=C/C(=O)c2cccc(NC(=O)c3c(Cl)cccc3Cl)c2)ccc1O", "IC50 (nM)": 1230}
{"Molecule": "COc1cc(/C=C/C(=O)c2cccc(NC(C)=O)c2)ccc1O", "IC50 (nM)": 1260}

----------
Listed below: viability at 10 µM values for each entry.
experiment: Cytotoxicity against multidrug resistant P-gp expressing human KBV20C cells assessed as cell viability at 10 uM after 48 hrs by MTS assay; type: functional; conditions: read-out: Activity

{"Molecule": "COc1cc(/C=C/C(=O)c2cccc(NC(=O)c3ccc(Cl)c(Cl)c3)c2)ccc1O", "viability at 10 µM [%]": 72.6}
{"Molecule": "COc1cc(/C=C/C(=O)CC(=O)/C=C/c2ccc(O)c(OC)c2)ccc1O", "viability at 10 µM [%]": 93.1}
{"Molecule": "COC(=O)CC(=O)Nc1cccc(C(=O)/C=C/c2ccc(O)c(OC)c2)c1", "viability at 10 µM [%]": 106}
{"Molecule": "COc1cc(/C=C/C(=O)c2cccc(N)c2)ccc1O", "viability at 10 µM [%]": 99.4}
{"Molecule": "COc1cc(/C=C/C(=O)c2cccc(NC(=O)c3cccs3)c2)ccc1O", "viability at 10 µM [%]": 83.6}
